# System: anesthetized dog
# assayMethodText: Effect on electrocardiogram of anesthetized dog
# Assay type: in vivo
# cond: Individual 2 (female), 2 mg/kg/10 min i.v., 5 min after start of administration; Fridericia
observationType: QTc (ms)
State the answer as a number, implicitly in ms.

(Q) Suppose we examine the compound `COc1cc(CN[C@@H](C)[C@H](O)c2ccc(O)c(NS(C)(=O)=O)c2)cc(OC)c1` ; what QTc value has been reported?
(A) 292

----------
# Tested on: anesthetized dog
# assayMethodText: Effect on electrocardiogram of anesthetized dog
# Assay type: in vivo
# cond: Individual 1 (male), 2 mg/kg/10 min i.v., 60 min after start of administration; Fridericia
observationType: QTc (ms)
A number alone suffices; assume ms.

(Q) Param item = `COc1cc(CN[C@@H](C)[C@H](O)c2ccc(O)c(NS(C)(=O)=O)c2)cc(OC)c1` ; retrieve measured QTc.
(A) 304

----------
# Test system: anesthetized dog
# assayMethodText: Effect on electrocardiogram of anesthetized dog
# Format: in vivo
# cond: Individual 2 (female), 0.6 mg/kg/10 min i.v., 30 min after start of administration
observationType: QT interval (ms)
Give a bare numeral; the unit ms is implied.

(Q) Recorded QT interval for `COc1cc(CN[C@@H](C)[C@H](O)c2ccc(O)c(NS(C)(=O)=O)c2)cc(OC)c1` with anesthetized dog, please?
(A) 218

----------
# Test system: anesthetized dog
# assayMethodText: Effect on electrocardiogram of anesthetized dog
# Type: in vivo
# cond: Individual 1 (male), 0.6 mg/kg/10 min i.v., 15 min after start of administration; Fridericia
observationType: QTc (ms)
Expressed in ms, but write only the number.

(Q) What does the data say about its QTc? Entry: COc1cc(CN[C@@H](C)[C@H](O)c2ccc(O)c(NS(C)(=O)=O)c2)cc(OC)c1 [Example 1]
(A) 280

----------
# System: anesthetized dog
# assayMethodText: Effect on electrocardiogram of anesthetized dog
# Assay type: in vivo
# cond: Individual 2 (female), 6 mg/kg/10 min i.v., 45 min after start of administration; Fridericia
observationType: QTc (ms)
Please reply with the bare figure in ms and do not write the unit itself.

(Q) Can you share its QTc? I mean this compound: `COc1cc(CN[C@@H](C)[C@H](O)c2ccc(O)c(NS(C)(=O)=O)c2)cc(OC)c1`
(A) 303

----------
# System: anesthetized dog
# assayMethodText: Effect on electrocardiogram of anesthetized dog
# Format: in vivo
# cond: Individual 1 (male), 6 mg/kg/10 min i.v., 30 min after start of administration
observationType: QT interval (ms)
Report only the number, with the unit ms understood.

(Q) Given `COc1cc(CN[C@@H](C)[C@H](O)c2ccc(O)c(NS(C)(=O)=O)c2)cc(OC)c1` , state its recorded QT interval.
(A) 211

----------
# Tested on: anesthetized dog
# assayMethodText: Effect on electrocardiogram of anesthetized dog
# Format: in vivo
# cond: Individual 1 (male), 0.6 mg/kg/10 min i.v., 30 min after start of administration; Fridericia
observationType: QTc (ms)
Hi! Could you send only the number? It should be in ms, unit omitted.

(Q) Please look up its QTc: `COc1cc(CN[C@@H](C)[C@H](O)c2ccc(O)c(NS(C)(=O)=O)c2)cc(OC)c1`
(A) 290

----------
# Test system: anesthetized dog
# assayMethodText: Effect on electrocardiogram of anesthetized dog
# Type: in vivo
# cond: Individual 1 (male), 0.6 mg/kg/10 min i.v., 45 min after start of administration; Fridericia
observationType: QTc (ms)
The figure you give is taken to be in ms; do not add the unit.

(Q) Value lookup for QTc; key = `COc1cc(CN[C@@H](C)[C@H](O)c2ccc(O)c(NS(C)(=O)=O)c2)cc(OC)c1`
(A) 296

----------
# Tested on: anesthetized dog
# assayMethodText: Effect on electrocardiogram of anesthetized dog
# Type: in vivo
# cond: Individual 1 (male), 0.6 mg/kg/10 min i.v., 5 min after start of administration
observationType: QT interval (ms)
Write the number in ms without appending the unit.

(Q) I'd like to know its QT interval. The compound in question is `COc1cc(CN[C@@H](C)[C@H](O)c2ccc(O)c(NS(C)(=O)=O)c2)cc(OC)c1`
(A) 228

----------
# Test system: anesthetized dog
# assayMethodText: Effect on electrocardiogram of anesthetized dog
# Assay type: in vivo
# cond: Individual 1 (male), 6 mg/kg/10 min i.v., 10 min after start of administration
observationType: QT interval (ms)
Reply with just the number (in ms).

(Q) Checklist item: QT interval tested on anesthetized dog, entry `COc1cc(CN[C@@H](C)[C@H](O)c2ccc(O)c(NS(C)(=O)=O)c2)cc(OC)c1` , value?
(A) 211

----------
# Test system: anesthetized dog
# assayMethodText: Effect on electrocardiogram of anesthetized dog
# Type: in vivo
# cond: Individual 1 (male), 6 mg/kg/10 min i.v., 10 min after start of administration; Fridericia
observationType: QTc (ms)
Provide only the numeric value, understood in ms.

(Q) Query the reported QTc for anesthetized dog; item: COc1cc(CN[C@@H](C)[C@H](O)c2ccc(O)c(NS(C)(=O)=O)c2)cc(OC)c1 [Example 1]
(A) 294

----------
# System: anesthetized dog
# assayMethodText: Effect on electrocardiogram of anesthetized dog
# Type: in vivo
# cond: Individual 1 (male), 2 mg/kg/10 min i.v., 15 min after start of administration
observationType: QT interval (ms)
// units = ms; emit number, no label

(Q) Dear colleague, I am looking for the recorded QT interval of the following compound: `COc1cc(CN[C@@H](C)[C@H](O)c2ccc(O)c(NS(C)(=O)=O)c2)cc(OC)c1`
(A) 213

----------
# System: anesthetized dog
# assayMethodText: Effect on electrocardiogram of anesthetized dog
# Assay type: in vivo
# cond: Individual 2 (female), 6 mg/kg/10 min i.v., 60 min after start of administration; Fridericia
observationType: QTc (ms)
Kindly provide the numeric value in ms only, without the unit symbol.

(Q) # returns recorded QTc (system: anesthetized dog) for `COc1cc(CN[C@@H](C)[C@H](O)c2ccc(O)c(NS(C)(=O)=O)c2)cc(OC)c1`
(A) 294

----------
# System: anesthetized dog
# assayMethodText: Effect on electrocardiogram of anesthetized dog
# Type: in vivo
# cond: Individual 1 (male), 2 mg/kg/10 min i.v., 0 min (immediately before start of administration)
observationType: QT interval (ms)
Express it in ms; write the number only.

(Q) # get_value(readout='QT interval', item= COc1cc(CN[C@@H](C)[C@H](O)c2ccc(O)c(NS(C)(=O)=O)c2)cc(OC)c1 [Example 1] )
(A) 218

----------
# Test system: anesthetized dog
# assayMethodText: Effect on electrocardiogram of anesthetized dog
# Format: in vivo
# cond: Individual 1 (male), 2 mg/kg/10 min i.v., 0 min (immediately before start of administration); Fridericia
observationType: QTc

(Q) Provide value of QTc for this record tested with anesthetized dog: `COc1cc(CN[C@@H](C)[C@H](O)c2ccc(O)c(NS(C)(=O)=O)c2)cc(OC)c1`
(A) 293 ms

----------
# Tested on: anesthetized dog
# assayMethodText: Effect on electrocardiogram of anesthetized dog
# Assay type: in vivo
# cond: Individual 2 (female), 0.6 mg/kg/10 min i.v., 45 min after start of administration; Fridericia
observationType: QTc (ms)
Just the number please, in ms, no unit attached.

(Q) Quick check: QTc of COc1cc(CN[C@@H](C)[C@H](O)c2ccc(O)c(NS(C)(=O)=O)c2)cc(OC)c1 [Example 1] ?
(A) 288

----------
# System: anesthetized dog
# assayMethodText: Effect on electrocardiogram of anesthetized dog
# Assay type: in vivo
# cond: Individual 1 (male), 6 mg/kg/10 min i.v., 45 min after start of administration; Fridericia
observationType: QTc (ms)
Give the value, in units of ms, as a plain number.

(Q) QTc of `COc1cc(CN[C@@H](C)[C@H](O)c2ccc(O)c(NS(C)(=O)=O)c2)cc(OC)c1` on anesthetized dog?
(A) 320

----------
# Test system: anesthetized dog
# assayMethodText: Effect on electrocardiogram of anesthetized dog
# Format: in vivo
# cond: Individual 1 (male), 6 mg/kg/10 min i.v., 60 min after start of administration
observationType: QT interval (ms)
Give the quantity in ms, number only.

(Q) GET /values?readout=QT interval&item= `COc1cc(CN[C@@H](C)[C@H](O)c2ccc(O)c(NS(C)(=O)=O)c2)cc(OC)c1`
(A) 226

----------
# Test system: anesthetized dog
# assayMethodText: Effect on electrocardiogram of anesthetized dog
# Format: in vivo
# cond: Individual 1 (male), 0.6 mg/kg/10 min i.v., 60 min after start of administration
observationType: QT interval
Could you give the number and then its unit, please?

(Q) Return reported QT interval; argument: `COc1cc(CN[C@@H](C)[C@H](O)c2ccc(O)c(NS(C)(=O)=O)c2)cc(OC)c1`
(A) 221 ms

Source of measurements: patent US8198330B2
